Recorded endpoint: glass transition temperature (°C)
Field format: number, assumed °C, no unit text.

*CC(*)SCC (repeat unit) | -7.00
*/C=C/C1CC(*)C(C#N)(C[Si](C)(C)C)C1 (repeat unit) | 128.00
*CC(*)Cc1ccccc1 (repeat unit) | 70.00

// next item, glass transition temperature requested
Request: Data request, read-out glass transition temperature, for *CCN(*)C(=O)c1cc(F)ccc1F (repeat unit)
Response: 112.00

---

Recorded endpoint: glass transition temperature (°C)
Field format: number, assumed °C, no unit text.

*CCCCCNC(=S)N* (repeat unit) | 55.00
*CCCCOc1ccc(/C=C2\CC/C(=C\c3ccc(OCCCCOP(=O)(O*)OCC)c(OC)c3)C2=O)cc1OC (repeat unit) | 79.00
*CCCCCCCCCCOc1ccc(/C=C/c2ccc(OCCCCCCCCCCOP(=O)(O*)OCCCCCCCCCCOc3ccc(/N=N/c4ccccc4)cc3)cc2)cc1 (repeat unit) | 55.00
*CC(*)C(=O)OCC(C)C (repeat unit) [Poly(isobutyl acrylate) ] | -24
*C(=O)OCCN(CCOC(=O)c1ccc2c(c1)C(=O)N(c1c(C)cc(Cc3cc(C)c(N4C(=O)c5ccc(*)cc5C4=O)c(C)c3)cc1C)C2=O)c1ccccc1 (repeat unit) | 177.00

Request: Data request, read-out glass transition temperature, for */C(C)=[C](/*)[Ge]([CH3])([CH3])[CH3] (repeat unit)
Response: 250.00

Request: Data request, read-out glass transition temperature, for *CC(*)OCCCC (repeat unit) [Poly(butyl vinyl ether)]
Response: -52.08

---

Returns: string. Value is Fulfilled if measured glass transition temperature is below 100 °C, and Not fulfilled if it is greater than or equal to it.

*CC(*)(C)c1ccc2ccccc2n1 (repeat unit) | Not fulfilled
*CC#CC#CCOc1ccc(C(=O)OCCN(CCOC(=O)c2ccc(O*)cc2)c2ccc(/N=N/c3ccc(/N=N/c4cc(C)c(C#N)c(C)c4)cc3)cc2)cc1 (repeat unit) | Not fulfilled
*CCCCCCCCCCCCN1C(=O)c2cccc3c(-c4ccc5c6c(cccc46)C(=O)N(CCCCCCCCCCCCN4C(=O)c6ccc7c8ccc9c%10c(ccc(c%11ccc(c6c7%11)C4=O)c%108)C(=O)N(*)C9=O)C5=O)ccc(c23)C1=O (repeat unit) | Not fulfilled

Request: Given the entry *c1ccc(Oc2ccc(-c3cccc(-c4ccc(Oc5ccc(-c6c7c(c(*)c8ccccc68)C(=O)N(c6ccccc6)C7=O)cc5)c(C(F)(F)F)c4)n3)cc2C(F)(F)F)cc1 (repeat unit) , would its reported glass transition temperature be below 100 °C?
Response: Not fulfilled

Request: Given the entry *CC(*)c1ccc(COCC(CC)CCCC)cc1 (repeat unit) , would its reported glass transition temperature be below 100 °C?
Response: Fulfilled

---

Recorded endpoint: glass transition temperature (°C)
Field format: number, assumed °C, no unit text.

Request: Data request, read-out glass transition temperature, for *CC(*)c1ccc(C(C)(C)C)cc1 (repeat unit)
Response: 129

Request: Data request, read-out glass transition temperature, for *c1ccc(NC(=O)c2ccc(NC(=O)c3ccc([Si](C)(C)c4ccc(C(=O)Nc5ccc(C(=O)Nc6ccc(S(*)(=O)=O)cc6)cc5)cc4)cc3)cc2)cc1 (repeat unit)
Response: 315.00

Request: Data request, read-out glass transition temperature, for *CC(*)C1=NCCN1 (repeat unit)
Response: -48.3

Request: Data request, read-out glass transition temperature, for *Oc1ccc(OC(=O)c2ccc(C(*)=O)cc2)cc1C(F)(F)F (repeat unit)
Response: 159.30

Request: Data request, read-out glass transition temperature, for *OC(*)C (repeat unit)
Response: -19.50

From: the PolyMetriX glass transition set
